melting point for assorted molecules
Note: a bare number is incomplete; add the unit.

Ask: Quick one: melting point for CC(C)Oc1ccc(F)cc1-c1cc(NC(=O)C2CCC(=O)NC2)ncn1 (stereo not drawn) ?
Result: 236 °C

====

assay_metric: melting point

> print(dat)
                                   compound   assay.metric       observed
1  COc1ccccc1-c1cc(NC(=O)[C@H]2CCCNC2)ncn1 [Compound 17A]  melting point  163 to 165 °C
2  COc1ccccc1-c1cc(NC(=O)[C@@H]2CCCNC2)ncn1 [Compound 18A]  melting point  210 to 213 °C

Let us move to another entry and its melting point.
Ask: Any idea what melting point was measured for COc1ccccc1-c1cc(NC(=O)C2CCCNC2)nc(C)n1 (stereo not drawn) [Compound 22A] ?
Result: 229 to 230 °C

====

assay_metric: melting point
Answer with the figure and its unit, nothing else.

Below are worked cases with known answers.
> print(dat)
                                   molecule  observed
1  CCc1cc(C(=O)Nc2cc(-c3cc(F)ccc3OC)ncn2)no1 [Example 58]    175 °C
2  COc1ccc(F)cc1-c1cc(NC(=O)c2cc(C)on2)ncn1 [Example 55]    170 °C
3  COc1ccc(F)cc1-c1cc(NC(=O)c2cnn3cc(C)cnc23)ncn1 [Example 59]    265 °C

Ask: Please report the recorded melting point for COc1ccc(F)cc1-c1cc(NC(=O)C(=O)c2ccccc2)ncn1 [Example 61] .
Result: 146 °C

Ask: I'd like to know its melting point. The molecule in question is CCc1ccc(C(=O)Nc2cc(-c3cc(F)ccc3OC)ncn2)nc1 [Example 56]
Result: 176 °C

====

Collected melting point values appear next to each entry.
Numbers only; they are read as °C.

Look over these answered cases.
> print(dat)
                                   compound   assay.metric  observed
1  COc1ccc(F)cc1-c1cc(NC(=O)C2(C(N)=O)CC2)ncn1 [Example 10]  melting point       190
2  CCOc1ccccc1-c1cc(NC(=O)C2CCC(=O)NC2)ncn1 (stereo not drawn) [Example 15]  melting point       117

Ask: For the compound CCOc1cc(F)ccc1-c1cc(NC(=O)C2CCC(=O)NC2)ncn1 (stereo not drawn) [Example 24] , what melting point is on record?
Result: 222

This collection of values is drawn from patent US8716296B2.
